# Assay Details: Clinical pharmacokinetics of cabozantinib (absorption, distribution, elimination)
# Type: in vivo, human
# Condition Parameters: human, plasma; oral administration; read-out: Median time to peak plasma concentration (Tmax)
Measured Metric: Tmax

[ask] Requested field: Tmax. Item: COc1cc2nccc(Oc3ccc(NC(=O)C4(C(=O)Nc5ccc(F)cc5)CC4)cc3)c2cc1OC [cabozantinib]
[reply] 2 to 3 h

* * *

# Assay Details: Population pharmacokinetic (PopPK) model (RCC patients and healthy volunteers)
# Assay type: in vivo, human
# Condition Parameters: human, plasma, oral; subject; read-out: Terminal phase volume of distribution, PopPK estimate
Measured Metric: Vd (L)
Expressed in L, but write only the number.

[ask] Requested field: Vd. Item: COc1cc2nccc(Oc3ccc(NC(=O)C4(C(=O)Nc5ccc(F)cc5)CC4)cc3)c2cc1OC [cabozantinib]
[reply] 319

* * *

# Assay Details: Population pharmacokinetic (PopPK) model (RCC patients and healthy volunteers)
# Format: in vivo, human
# Condition Parameters: human, plasma, oral; final PopPK model parameter estimate; White male; read-out: Vc/F (apparent volume of distribution, central compartment)
Measured Metric: Vd/F (L)
Expressed in L, but write only the number.

[ask] Requested field: Vd/F. Item: COc1cc2nccc(Oc3ccc(NC(=O)C4(C(=O)Nc5ccc(F)cc5)CC4)cc3)c2cc1OC [cabozantinib]
[reply] 81.5
